Kindly state BTX inhibition (rat) (% inhibition) for each of the entries shown.
# System: batrachotoxin (BTX) binding site of the sodium channel
# assay-name: Affinity to the batrachotoxin (BTX) binding site of the sodium channel
# Design: species or system rat
# experimental-context: [3H]-batrachotoxinin A20 α-benzoate 10 nM; synaptosomes from rat cerebral cortex; test concentration not given
Answer by giving the amount and then stating its unit.

These solved cases illustrate the format of a correct answer.
>  <compound>
CN(C(=O)c1cccc2ccccc12)c1nc2n(c1C(=O)NCCc1ccc(Oc3ccccc3)cc1)CCCC2 [Example 68]

>  <BTX inhibition (rat) (% inhibition)>
87%

$$$$
>  <compound>
CC1C(NC(=O)c2c(N(C)C(=O)c3cccc(Cl)c3)nc3n2CCCC3)CC2CC1C2(C)C (stereo not drawn) [Example 27]

>  <BTX inhibition (rat) (% inhibition)>
35%

$$$$
>  <compound>
CCCCN(C(=O)c1cccc(Cl)c1)c1nc2n(c1C(=O)N(C)C1CCN(Cc3c(Cl)cccc3Cl)C1)CCCC2 (stereo not drawn) [Example 87]

>  <BTX inhibition (rat) (% inhibition)>
93%

$$$$
>  <compound>
COc1cc(Br)c(CN2CCC(NC(=O)c3c(N(C)C(=O)c4cccc(Cl)c4)nc4n3CCCC4)C2)cc1OC (stereo not drawn) [Example 84]

>  <BTX inhibition (rat) (% inhibition)>
87%

$$$$
>  <compound>
COc1cc(OC)c(CN2CCN(C(=O)c3c(N(C)C(=O)c4cccc(Cl)c4)nc4n3CCCC4)CC2)c(OC)c1 [Example 146]

>  <BTX inhibition (rat) (% inhibition)>
70%

$$$$

Now turn to the next compound.
The recorded BTX inhibition (rat) (% inhibition) for CN(C(=O)c1cccc2ccccc12)c1nc2n(c1C(=O)Nc1ccc(C(C)(C)C)cc1)CCCC2 [Example 170] is 80%

* * *

# Tested on: batrachotoxin (BTX) binding site of the sodium channel
# assay-name: Affinity to the batrachotoxin (BTX) binding site of the sodium channel
# Set-up: species or system rat
# experimental-context: [3H]-batrachotoxinin A20 α-benzoate 10 nM; synaptosomes from rat cerebral cortex; test concentration not given
property-name: BTX inhibition (rat) (% inhibition)
Answer by giving the amount and then stating its unit.

>  <molecule>
CN(C(=O)c1cccc(Cl)c1)c1nc2n(c1C(=O)N1CCN(Cc3ccc4c(c3)OCO4)CC1)CCCC2 [Example 45]

>  <BTX inhibition (rat) (% inhibition)>
41%

$$$$
>  <molecule>
CCCCN(C(=O)c1cccc(Cl)c1)c1nc2n(c1C(=O)NCc1ccccc1OCC)CCCC2 [Example 43]

>  <BTX inhibition (rat) (% inhibition)>
40%

$$$$
>  <molecule>
CCCCN(C(=O)c1cccc(Cl)c1)c1nc2n(c1C(=O)NCCOc1ccccc1)CCCC2 [Example 107]

>  <BTX inhibition (rat) (% inhibition)>
39%

$$$$

Please give BTX inhibition (rat) (% inhibition) for each item listed below.
1. Cc1ccc(NC(=O)c2c(N(C)C(=O)Cc3ccccc3)nc3n2CCCC3)cc1 [Example 159]
2. CCCCN(C(=O)c1cccc(Cl)c1)c1nc2n(c1C(=O)Nc1ccc(NC(=O)OC(C)(C)C)cc1)CCCC2 [Example 189]
3. CCc1ccccc1N1CCN(C(=O)c2c(N(C)C(=O)c3cccc4ccccc34)nc3n2CCCC3)CC1 [Example 136]
4. CCCCN(C(=O)c1cccc(Cl)c1)c1nc2n(c1C(=O)N1CCN(CCCc3ccccc3)CC1)CCCC2 [Example 26]
5. CN(C(=O)c1cccc2ccccc12)c1nc2n(c1C(=O)NCc1ccccc1OC(F)(F)F)CCCC2 [Example 99]
6. CCCCN(C(=O)c1cccc(Cl)c1)c1nc2n(c1C(=O)NCCCn1ccnc1)CCCC2 [Example 9]
7. CN(C(=O)c1cccc2ccccc12)c1nc2n(c1C(=O)Nc1ccc(Oc3ccccc3)cc1)CCCC2 [Example 185]

Reply:
1: 37%; 2: 93%; 3: 54%; 4: 93%; 5: 33%; 6: 36%; 7: 74%
